measuredOn: human PD-L1/His fusion protein (human, UniProt Q9NZQ7 19-239)
Sequence (Q9NZQ7 19-239 limits assumed): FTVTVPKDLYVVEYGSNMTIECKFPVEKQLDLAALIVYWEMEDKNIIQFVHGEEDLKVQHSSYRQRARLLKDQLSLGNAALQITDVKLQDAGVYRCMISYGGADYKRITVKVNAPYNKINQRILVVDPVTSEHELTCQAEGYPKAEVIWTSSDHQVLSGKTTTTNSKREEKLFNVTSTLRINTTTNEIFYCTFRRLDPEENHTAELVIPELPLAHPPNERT
assayProcedure: BLI Octet RED96, antibody on AHC sensor, single conc. PD-L1/His; test group 2
# if measured koff < 0.0004 s⁻¹: yes (1)  # else: no (0)

Prompt: Please determine if HuEM0005-87-9 (antibody, human IgG1, V domains shown) VH: EVQLVQSGAEVKKPGASVKVSCKASGYSFTDYYINWVRQAPGQGLEWIGETIPNTGGTTYNQKFKAKATLTVDKSTSTAYMELSSLRSEDTAVYYCARYQSGSPFAYWGQGTTVTVSS VL: EIVMTQSPATLSVSPGERATLSCKASQNVGTAVAWYQQKPGQAPRLLIYSASNRYTGIPARFSGSGSGTEFTLTISSLQSEDFAVYYCQQHYSTPYTFGGGTKLEIK is below 0.0004 s⁻¹ in terms of koff.
Response: no (0)

Prompt: Also need HuEM0005-90-11 (antibody, human IgG1, V domains shown) VH: EVQLVQSGAEVKKPGASVKVSCKTSGYTFTSHSINWVRQATGQGLEWMGYMYIGNGYTEYNEKFKGRVTMTSNTSISTAYMELSSLRSEDTAVYYCAKITPVVAPYVMDYWGQGTSVTVSS VL: DIVMTQSPSFLSASVGDRVTITCKASQDVGTAVAWYQQKPGKAPKLLIYWASTRHTGVPSRFSGSGSGTDFTLTISSLQPEDFATYYCQQYSSYPYTFGQGTKLEIK , thanks.
Response: no (0)

Prompt: Also need HuEM0005-87-12 (antibody, human IgG1, V domains shown) VH: EVQLVQSGAEVKKPGASVKVSCKASGYTFTDYYINWVRQAPGQGLEWMGETIPNTGGTTYNQKFKARVTLTVDTSTSTVYMELSSLRSEDTAVYYCARYQSGSPFAYWGQGTTVTVSS VL: EIVMTQSPATLSVSPGERATLSCKASQNVGTAVAWYQQKPGQAPRLLIYSASNRYTGVPARFSGSGSGTEFTLTISSLQSEDFAVYYCQQHYSTPYTFGGGTKLEIK , thanks.
Response: no (0)

Prompt: Also need HuEM0005-87-10 (antibody, human IgG1, V domains shown) VH: EVQLVQSGAEVKKPGASVKVSCKASGYSFTDYYINWVKQAPGQGLEWIGETIPNTGGTTYNQKFKAKATLTRDKSTSTAYMELKSLRSEDTAVYYCARYQSGSPFAYWGQGTTVTVSS VL: EIVMTQSPATLSVSPGERATLSCKASQNVGTAVAWYQQKPGQAPRLLIYSASNRYTGIPARFSGSGSGTEFTLTISSLQSEDFAVYYCQQHYSTPYTFGGGTKLEIK , thanks.
Response: no (0)

Prompt: Also need HuEM0005-90-9 (antibody, human IgG1, V domains shown) VH: EVQLVQSGAEVKKPGASVKVSCKASGYTFTSHSINWVRQATGQGLEWMGYMYIGNGYTEYNEKFKGRVTLTSNTSISTAYMELSSLRSEDTAVYYCAKITPVVAPYVMDYWGQGTSVTVSS VL: DIVMTQSPSFLSASVGDRVTITCKASQDVGTAVAWYQQKPGKAPKLLIYWASTRHTGVPSRFSGSGSGTDFTLTISSLQPEDFATYYCQQYSSYPYTFGQGTKLEIK , thanks.
Response: yes (1)
